# target-system: T1, hBMPR1B-His (human BMPR1B extracellular domain, residues K14 to R126, with C-terminal 9x-Histidine tag) (human, UniProt O00238 14-126); also: unit not given here
# T1 construct: Residues K14-R126 are counted on the hBMPR1B ORF (NM_001203); The IgK signal peptide of the vector is left out; also called hBMPR1B-CHis; human BMPR1B-his
# T1 sequence: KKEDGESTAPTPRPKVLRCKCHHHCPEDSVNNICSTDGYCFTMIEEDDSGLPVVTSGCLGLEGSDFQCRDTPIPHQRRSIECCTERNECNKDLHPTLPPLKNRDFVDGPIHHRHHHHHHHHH
# assay-comment: ELISA
Kindly state ELISA for each of the entries shown.
// response body must contain only the number

Q: Entry SC91.20 (antibody, V domains shown) VH: QVQLQQPGAEVVRPGASLKLSCKASGYTFTSYWMQWIKQRPGQGLEWIGEIDPSDNYTMYNQKFKGKATLTVDTSSSTAYMQLSSLTSEDSAVYFCARFGFYVDYWGQGTTLTVSS VL: DVVMTQTPLSLPVSLGDQASISCRSSQSLVHSTGNTYLHWYLQKPGQSPNLLIYKVSNRFSGVPDRFSGSGSGTDFTLKISRVEAEDLGVYFCSQSTHVPFTFGSGTKLEIK : reported ELISA = ?
A: 1.01

Q: ELISA for SC91.27 (murine anti-BMPR1B antibody) (antibody, V domains shown, Murine hybridoma antibody with the same VL as SC91.20) VH: QVQLQQPGAEVVKPGASVKLSCKASGYTFTNYWMQWVKQRPGQGLEWIGEIDPSDRYTMYNQKFKGKATLIVDTSSSTAYMQLSSLTSEDSAVYFCARFGYYVDYWGQGTTLTVSS VL: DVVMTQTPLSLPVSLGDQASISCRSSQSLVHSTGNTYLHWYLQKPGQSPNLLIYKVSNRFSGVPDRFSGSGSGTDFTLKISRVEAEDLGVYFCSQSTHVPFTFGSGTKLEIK ?
A: 0.855

Q: Find the recorded ELISA belonging to SC91.11 (antibody, V domains shown) VH: QVQLQQPGAELVKPGASVKLSCKASGYTFTTYWMHWVKQRPGRGLEWIGRIDPNSGGTKYNEKFKSKATLTVDKPSSTACMQLSSLTSEDSAVYYCASRRGDIDVWGTGTTVTVSS VL: DIVMTQSQKFMSTSVGDRVSVTCKASQNVGTNVFWYQQKPGQSPKALIYAASYRYSGVPDRFTGSGSGTDFTLTISNVQSEDLADYFCQQYDSYPLTFGDGTKLELR and report it.
A: 0.791

This collection of values is drawn from patent US20190153103A1.
